Reference for the values: patent US6924309B2

# ASSAY PROCEDURE: Petri-dish thin film autoxidation of arachidonic acid with thia fatty acids and sulfides (HPLC)
# EXPERIMENTAL CONDITIONS: ratio arachidonic acid:compound 1:1, 1 day
Arachidonic acid (%) recovered following autoxidation in the presence of the compound values, listed per item
MEASUREMENT KIND: Arachidonic acid (%) recovered following autoxidation in the presence of the compound

{"COMPOUND": "CCCCCCCCCCCCCCSCC(=O)O", "OBSERVED VALUE": 53}
{"COMPOUND": "CCCCC/C=C\\C/C=C\\C/C=C\\C/C=C\\CCCCSCC(=O)O", "OBSERVED VALUE": 68}
{"COMPOUND": "CCCCCCCCCCCCCCSCCC(=O)O", "OBSERVED VALUE": 98}
{"COMPOUND": "CCCCCCCCCCCCCCSCCC [Compound 111, propyltetradecyl sulfide]", "OBSERVED VALUE": 100}
{"COMPOUND": "CC/C=C\\C/C=C\\CCSCCC(=O)O", "OBSERVED VALUE": 99}
{"COMPOUND": "CCCCC/C=C\\C/C=C\\C/C=C\\C/C=C\\CCCCSCCC(=O)O", "OBSERVED VALUE": 99}
{"COMPOUND": "CC/C=C\\C/C=C\\C/C=C\\CCCCCCCCSCCC(=O)O", "OBSERVED VALUE": 100}
